- Target Of Assay: PD-L1 (Macaca fascicularis, UniProt G7PSE7)
- Sequence (G7PSE7 19-239): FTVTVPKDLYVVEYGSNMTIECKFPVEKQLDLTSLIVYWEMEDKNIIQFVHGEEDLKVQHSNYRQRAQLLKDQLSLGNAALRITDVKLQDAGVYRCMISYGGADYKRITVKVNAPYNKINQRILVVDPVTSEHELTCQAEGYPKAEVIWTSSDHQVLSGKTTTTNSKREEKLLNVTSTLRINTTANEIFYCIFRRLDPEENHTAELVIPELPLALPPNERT
- Measurement Description: Rescue of proliferation inhibited by PD-L1, monkey PBMC
- Type: cell-based
- Conditions: n=1
Metric Name: EC50 (nM)
I only need the number, in nM, no unit after it.

Problem: What value of EC50 has been reported for the following compound? C[C@@H](O)[C@H](NC(=O)N[C@@H](CC(N)=O)c1nc([C@@H](N)CO)no1)C(=O)O [CA-170]
Result: 34

###

- Measurement Description: Pharmacokinetics in mice
- Type: in vivo, mouse
- Conditions: mouse, in vivo, po, 30 mg/kg
Residues, ends and D or L forms follow the SMILES beside them.
Metric Name: AUC (ng·h/mL)
I only need the number, in ng·h/mL, no unit after it.

Problem: What value of AUC has been reported for the following compound? C[C@@H](O)[C@@H]1NC(=O)[C@H](CC(N)=O)NC(=O)[C@H](CO)NC(=O)[C@H](Cc2ccccc2)NC(=O)[C@H](CO)NC(=O)[C@H](CCC(=O)O)NC(=O)[C@H](CO)NC1=O [PM-823] (HELM PEPTIDE1{E.S.F.S.N.T.S}$PEPTIDE1,PEPTIDE1,1:R1-7:R2$$$V2.0)
Result: 495

###

- Target Of Assay: PD-L1 (Macaca fascicularis, UniProt G7PSE7)
- Measurement Description: Rescue of IFN-γ release inhibited by PD-L1, monkey PBMC
- Format: cell-based
- Conditions: n=1
Metric Name: pEC50
When answering, recall that pEC50 equals minus log10 of the concentration in mol/L, and write that number alone.

Problem: Record lookup: for PD-L1 (Macaca fascicularis, UniProt G7PSE7), what pEC50 belongs to `C[C@@H](O)[C@H](NC(=O)N[C@@H](CC(N)=O)c1nc([C@@H](N)CO)no1)C(=O)O` ?
Result: 7.01

###

- Target Of Assay: PD-L2 (Mus musculus)
- Construct: purchased R&D Systems 1022-PL-100
- Sequence (Q9WUL5 with tags, fused parts or gaps limits assumed): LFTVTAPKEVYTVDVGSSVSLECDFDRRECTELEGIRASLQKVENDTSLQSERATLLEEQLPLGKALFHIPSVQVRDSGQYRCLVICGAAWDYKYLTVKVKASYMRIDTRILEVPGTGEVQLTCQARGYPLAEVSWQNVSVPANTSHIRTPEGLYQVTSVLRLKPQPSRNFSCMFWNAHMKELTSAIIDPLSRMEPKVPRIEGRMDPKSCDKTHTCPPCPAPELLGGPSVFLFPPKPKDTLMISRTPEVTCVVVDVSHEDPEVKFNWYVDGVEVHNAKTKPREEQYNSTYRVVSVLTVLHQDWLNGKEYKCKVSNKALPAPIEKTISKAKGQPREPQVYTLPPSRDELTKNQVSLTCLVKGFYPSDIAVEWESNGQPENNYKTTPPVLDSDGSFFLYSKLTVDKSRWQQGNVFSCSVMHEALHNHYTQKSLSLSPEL
- Measurement Description: Rescue of IFN-γ release inhibited by PD-L2, mouse splenocytes
- Assay type: cell-based
- Conditions: mean ± S.D.; n=2; read-out: Mouse Splenocyte IFN-γ Rescue EC50 PD-L2
- Description: The ability of peptides, peptidomimetics, and small molecules were analyzed for their ability to rescue T-cell proliferation or IFN-γ release from the inhibitory activity of PD-L1 or PD-L2 in a splenocyte/PBMC-based functional assay as per the protocols reported in publication. […] For all in vitro assays, test agent stock was prepared in water and diluted further in the assay media to achieve test concentrations. Each experimental condition was carried out in triplicates. […]
Metric Name: EC50 (nM)
I only need the number, in nM, no unit after it.

Problem: What value of EC50 has been reported for the following compound? C[C@@H](O)[C@H](NC(=O)N[C@@H](CC(N)=O)c1nc([C@@H](N)CO)no1)C(=O)O [CA-170]
Result: 78.3

###

- Measurement Description: Plasma stability, mice
- Conditions: mouse
Metric Name: remaining at 4 h, 10 μM

Problem: What value of remaining at 4 h, 10 μM has been reported for the following molecule? `C[C@@H](O)[C@H](NC(=O)N[C@@H](CC(N)=O)c1nc([C@@H](N)CO)no1)C(=O)O`
Result: > 95%

###

- Target Of Assay: PD-L2 (Mus musculus)
- Construct: purchased R&D Systems 1022-PL-100
- Measurement Description: Rescue of PD-L2 mediated inhibition of proliferation, mouse splenocytes
- Assay type: cell-based
- Conditions: mean ± S.D.; n=2; read-out: Mouse Splenocyte Proliferation Rescue EC50 PD-L2
Metric Name: pEC50
When answering, recall that pEC50 equals minus log10 of the concentration in mol/L, and write that number alone.

Problem: What value of pEC50 has been reported for the following compound? `C[C@@H](O)[C@H](NC(=O)N[C@@H](CC(N)=O)c1nc([C@@H](N)CO)no1)C(=O)O`
Result: 7.40
